Test system: SK-MEL-5 melanoma
Assay: NCI tumour cell line growth inhibition, 48 h
Would you kindly list TGI for each of these compounds?
Just the number in µM, nothing appended.

Record `O=C1C(c2ccc([N+](=O)[O-])cc2)=[N+]([O-])c2ccccc21` . Reported TGI: 31.5

The reported TGI of the compound `COc1ccc(-c2nc(N)c(C#N)c3c2CCSc2ccc(C)cc2-3)cc1OC` was 25.2

====

For each entry below, report its TGI value.
System: HCC-2998 colon
Assay: NCI tumour cell line growth inhibition, 48 h

Memo: `COc1ccc(-c2nc(N)c(C#N)c3c2CCSc2ccc(C)cc2-3)cc1OC` , reported TGI: > 57.8 µM

TGI reading for `Cc1nc2c(=O)[nH]c3ccccc3c2o1` : > 100 µM

The reported TGI of the molecule `Fc1ccc(-c2ncn(C3CCNCC3)c2-c2ccnc(Oc3ccccc3)n2)cc1` was > 25 µM

Reported TGI for CSC(=NC1CC(n2cc(C)c(=O)[nH]c2=O)OC1CO)NC#N (centres undefined) was > 100 µM

====

Tested on: NCI-H23 lung
Assay: NCI tumour cell line growth inhibition, 48 h
For each entry below, report its TGI value.

Documented TGI of `C[C@@H](C(=O)O)c1ccc(-c2ccccc2)c(F)c1` : > 100 µM

TGI in this record for `O=C(Nc1ncc(Cc2ccccc2)s1)c1ccc2c(c1)OCCO2` : > 100 µM

Short answer for `COc1ccc(NC(=O)CC/C(CC(=O)c2ccccc2Cl)=N\Nc2nnc(C)n2N)cc1` : TGI was > 100 µM

====

I'd be grateful if you could share measured TGI for these entries.
System: OVCAR-8 ovarian
Test: NCI tumour cell line growth inhibition, 48 h

Reported TGI for `COc1ccc2c(C)cc(N/N=C/c3sccc3C)nc2c1` was 30.3 µM

Given item `COc1ccc2c(CC(=O)O)cc(=O)oc2c1` , the value recorded as its TGI is > 100 µM

For this molecule ( `C/C(=N\Nc1ccc2ccccc2n1)c1ccccc1O` ), measured TGI is > 100 µM

The molecule identified as C[C@]12CCC3[C@@H](C[C@H]4OC(=O)[C@@]35CCC(=O)C=C45)C1CCC2=O (stereo partly drawn) registered its TGI at > 100 µM

# TGI of `CC/C(Cl)=N\OC(=O)Nc1ccccc1OC(F)(F)F` = 35.9 µM

Input O=C1NC2OCC(O)C(O1)C2O (stereo not drawn) . Output TGI: > 100 µM

Kindly note the recorded TGI for Cc1ccc(C2(C)NC(=S)N(NC(N)=S)C2=S)cc1 (stereo not drawn) , which is > 100 µM

For record `Cc1cc(C)nc(NS(=O)(=O)c2ccc(NC(=O)c3cccc4c(Nc5ccc(S(=O)(=O)Nc6nc(C)cc(C)n6)cc5)c5ccccc5nc34)cc2)n1` the listed TGI is 68.1 µM

Sample `CCOCCc1c(O)nc(SC)[nH]c1=O` ; TGI observed: > 100 µM

Sample `CC(=O)Nc1ccc(C2=N/C(=C\c3ccc(Cl)c(Cl)c3)C(=O)O2)cc1` ; TGI observed: > 100 µM

Item: `Cn1c(N(CCO)CCO)cnc1[N+](=O)[O-]` | TGI: > 100 µM

For this molecule ( NCCCCC(N)C(=O)N1CCN(c2nc(N3CCCC3)c3nc(Cl)c(NCc4ccccc4)nc3n2)CC1 (stereo not drawn) ), measured TGI is 31.5 µM

For this molecule ( O=c1[nH]c(=O)n(C2CC(O)C(COP(=O)(O)OC3CC(n4cc(F)c(=O)[nH]c4=O)OC3COP(=O)(O)OC3CC(n4cc(F)c(=O)[nH]c4=O)OC3COP(=O)(O)OC3CC(n4cc(F)c(=O)[nH]c4=O)OC3COP(=O)(O)OC3CC(n4cc(F)c(=O)[nH]c4=O)OC3COP(=O)(O)OC3CC(n4cc(F)c(=O)[nH]c4=O)OC3COP(=O)(O)OC3CC(n4cc(F)c(=O)[nH]c4=O)OC3COP(=O)(O)OC3CC(n4cc(F)c(=O)[nH]c4=O)OC3COP(=O)(O)OC3CC(n4cc(F)c(=O)[nH]c4=O)OC3COP(=O)(O)OC3CC(n4cc(F)c(=O)[nH]c4=O)OC3CO)O2)cc1F (stereo not drawn) ), measured TGI is > 50 µM

`CC1(C)CC(=O)C(C(c2cccc(O)c2O)C2C(=O)CC(C)(C)CC2=O)C(=O)C1` has a reported TGI of > 100 µM

Record CCCCC(NC(=O)CC)C(=O)O (stereo not drawn) , field TGI: > 100 µM

Reported TGI ( CC1=NN(c2nc(N)nc(C(C)Sc3cc(Cl)c(C)cc3S(N)(=O)=O)n2)C(C)(C)C1 (stereo not drawn) ) = > 10 µM

molecule `COc1ccc(-c2cn(-c3ccc(Cl)cc3)c(=S)[nH]2)cc1OC` , TGI observed: > 100 µM

// recorded TGI for `C/C(=N\Nc1nc2ccccc2[nH]1)c1ccncn1` : > 87.6 µM

TGI for `COC(=O)CSc1ccccc1` is > 100 µM

For reference, reported TGI for `Cn1c(=O)cc(NNc2ccc(Br)cc2)[nH]c1=O` stands at 41.4 µM

Given item CC1CC(=O)N2CCCNC2=C1C#N (stereo not drawn) , the value recorded as its TGI is > 100 µM

For O=C1ON(Cc2ccccc2)C(c2ccccc2)N1c1ccccc1 (stereo not drawn) the molecule record lists TGI as > 100 µM

// TGI lookup, molecule = O=C1OC(c2ccccc2)C2CC3CC4(CCC3CN12)OCCO4 (stereo not drawn) , result: > 100 µM
